# testedSystem: AMPK
# assayDetails: AMPK activation, enzyme-linked immunosorbent assay
# experimentalSetup: EC50 for AMPK activation, ELISA
measuredParameter: EC50

Please look at this compound and report its EC50: N#Cc1ccc(CN2CCC(NC(=O)c3ccc(NC4CCN(c5ccc(C#N)cc5)CC4)cn3)CC2)cc1 [Compound 267] < 500 nM

Give the reported value of EC50 for this record: N#Cc1ccc(CN2CCC(NC(=O)c3ccc(C(=O)N4CCC(C(=O)c5ccc(N6CCCC6)cc5)CC4)nc3)CC2)cc1F [Compound 447] < 500 nM

Write down EC50 measured for item O=C(NC1CCN(Cc2ccc(OC(F)(F)F)cc2)CC1)c1ccc(C(=O)N2CCC(C(=O)c3ccc(N4CCCC4)cc3)CC2)nc1 [Compound 440] < 500 nM

Please give measured EC50 of the following entry: N#Cc1ccc(CN2CCC(NC(=O)c3ccc(C(=O)N4CCN(C(=O)C5CCCCC5)CC4)cn3)CC2)cc1 [Compound 89] 1000 to 5000 nM

Answer with the recorded EC50 of CC(C)(c1ccc(F)cc1)N1CCN(C(=O)c2ccc(C(=O)NC3CCN(Cc4ccc(C#N)cc4)CC3)nc2)CC1 [Compound 268] only. < 500 nM
